Vd by entry:
assay: Mice pharmacokinetic evaluation experiment; format: in vivo; conditions: male, ICR, mouse; IV 1 mg/kg, mice plasma
Just the number in L/kg, nothing appended.

C#Cc1c(F)ccc2cc(O)cc(-c3ncc4c(N5C[C@H]6CC[C@@H](C5)N6)nc(OCC56CC(=C)CN5CC(=C)C6)nc4c3F)c12 : 16.9

Please examine the following record next.
Ask: Record request: Vd value, item C#Cc1c(F)ccc2cc(O)cc(-c3ncc4c(N5CC6CCC(C5)N6)nc(OC[C@@]56CCCN5C[C@H](F)C6)nc4c3F)c12 [MRTX1133, reference compound]
Result: 14.1

----------
tested on: AGS cells (KRAS^G12D mutation); assay: Cell proliferation inhibition assay (3D, CellTiter-Glo), AGS; type: cell-based, human; conditions: Homo sapiens, AGS, 120 h, 3D cell model, 5 days
Attribute measured: pIC50
# pIC50: negative log10 of molar concentration; output just the value

Use these answered entries as a reference point.
C#Cc1cccc2cc(O)cc(-c3ncc4c(N5C[C@H]6CC[C@@H](C5)N6)nc(OCC56CCCN5CC=C6CC)nc4c3F)c12 (stereo partly shown) [Example Z16] : 7.03
C#Cc1cccc2cc(O)cc(-c3ncc4c(N5C[C@H]6CC[C@@H](C5)N6)nc(OCC56CCCN5CC(=C)C6)nc4c3F)c12 (stereo partly shown) [Example Z8] : 8.28
C#Cc1cccc2cc(O)cc(-c3ncc4c(N5C[C@H]6C=C[C@@H](C5)N6)nc(OC[C@@]56CCCN5C[C@H](F)C6)nc4c3F)c12 [Example Z7] : 7.49

Ask: Would you kindly share the measured pIC50 for C#Cc1c(F)ccc2cc(O)cc(-c3ccc4c(N5C[C@H]6CC[C@@H](C5)N6)nc(OCC56CCCN5CCC6)nc4c3F)c12 [Example Z9] ?
Result: 6.84

----------
tested on: AGS cells (KRAS^G12D mutation); assay: Cell proliferation inhibition assay (3D, CellTiter-Glo), AGS; assay type: cell-based, human; conditions: 3D cell model, 5 days
Attribute measured: IC50 (nM)
Give just the number in nM; leave the unit off.

The cases that follow already have their IC50 on record.
C#Cc1c(F)ccc2cc(O)cc(-c3ncc4c(N5C[C@H]6CC[C@@H](C5)N6)nc(OCC56CCCN5CC(=C)C6)nc4c3F)c12 (stereo partly drawn) : 3
C#Cc1cccc2cc(O)cc(-c3c(F)cc4c(N5C[C@H]6CC[C@@H](C5)N6)nc(OCC56CCCN5CC(=C)C6)nc4c3F)c12 (stereo partly drawn) : 7.7

Ask: What measured IC50 goes with C#Cc1cccc2cc(N)cc(-c3ncc4c(N5C[C@H]6CC[C@@H](C5)N6)nc(OCC56CC(=C)CN5CC(=C)C6)nc4c3F)c12 [Example Z214] ?
Result: 106

----------
molecular target: KRAS^G12D mutant protein binding to RBD region fragment of RAF1 protein (Homo sapiens (Human), UniProt P01116, G12D); test: KRAS-RAF1 binding assay (HTRF), KRAS G12D; details: His-KRAS^G12D, GST-RAF1-RBD, GTP
Sequence (P01116-2 other isoform, or with tags, fused parts or gaps G12D): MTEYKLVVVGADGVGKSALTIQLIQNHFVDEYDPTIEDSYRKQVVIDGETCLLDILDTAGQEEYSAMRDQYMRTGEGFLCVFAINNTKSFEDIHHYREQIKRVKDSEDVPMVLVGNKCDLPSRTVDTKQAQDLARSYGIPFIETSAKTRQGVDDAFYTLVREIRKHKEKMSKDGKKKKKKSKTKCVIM
Binary call on IC50 with cut-off 60 nM: strictly below means Fulfilled, and equality or higher means Not fulfilled.

Use these answered entries as a reference point.
C#Cc1c(F)ccc2cc(O)cc(-c3ncc4c(N5C[C@H]6CC[C@@H](C5)N6)nc(OC[C@]56CCCN5CC(=C)C6)nc4c3F)c12 (single isomer, unassigned) : Fulfilled
C#Cc1cccc2cccc(-c3ncc4c(N5C[C@H]6C=C[C@@H](C5)N6)nc(OCC56CCCN5CCC6)nc4c3F)c12 : Fulfilled
C#Cc1cccc2cc(O)cc(-c3ncc4c(N5C[C@@H]6N[C@H](C5)[C@@H]5C[C@@H]56)nc(OCC56CCCN5CCC6)nc4c3F)c12 : Not fulfilled

Ask: Dear reviewer, please state whether C#Cc1cccc2cc(O)cc(-c3ncc4c(N5C[C@H]6CC[C@@H](C5)N6)nc(OCC56CCCN5CC(=CF)C6)nc4c3F)c12 (some centres unmarked) has IC50 strictly beneath 60 nM.
Result: Fulfilled
